# Vm (uM min-1 (mg of protein)-1) per entry
Molecular target: Thymidylate kinase (Mycobacterium tuberculosis)
Sequence (whole entry): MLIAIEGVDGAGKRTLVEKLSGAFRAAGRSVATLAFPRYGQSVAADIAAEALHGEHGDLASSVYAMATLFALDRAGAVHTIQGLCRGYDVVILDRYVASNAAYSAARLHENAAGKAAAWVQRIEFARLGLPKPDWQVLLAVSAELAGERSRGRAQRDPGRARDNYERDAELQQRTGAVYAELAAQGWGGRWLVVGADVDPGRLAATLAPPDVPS
Test: Enzyme Kinetic constant was determined in the presence of Mycobacterium tuberculosis thymidine monophosphate kinase
// no unit string in output, number only

Some compounds with recorded Vm (uM min-1 (mg of protein)-1):
Structure Notation: O=c1[nH]c(=O)n([C@H]2C[C@H](O)[C@@H](COP(=O)(O)O)O2)cc1Br
Experimental Value: 9.8

Structure Notation: O=c1ccn([C@H]2C[C@H](O)[C@@H](COP(=O)(O)O)O2)c(=O)[nH]1
Experimental Value: 3.5

Structure Notation: Cc1cn([C@H]2C[C@H](O)[C@@H](COP(=O)(O)O)O2)c(=O)[nH]c1=O
Experimental Value: 10.6

Structure Notation: Cc1cn([C@H]2C[C@H](F)[C@@H](COP(=O)(O)O)O2)c(=O)[nH]c1=O
Experimental Value: 0.11

Structure Notation: O=c1[nH]c(=O)n([C@H]2C[C@H](O)[C@@H](COP(=O)(O)O)O2)cc1F
Experimental Value: 4.7

Structure Notation: O=c1[nH]c(=O)n([C@H]2C[C@H](O)[C@@H](COP(=O)(O)O)O2)cc1I
Experimental Value: 7.5

// moving on: another record for Vm (uM min-1 (mg of protein)-1)
[ask] Need Vm (uM min-1 (mg of protein)-1), item Cc1cn(-c2ccc(COP(=O)(O)O)o2)c(=O)[nH]c1=O
[reply] 0.16

Data provenance is ChEMBL document CHEMBL1135342.
